Molecular target: PXR (Nuclear receptor subfamily 1 group I member 2) (Homo sapiens, UniProt O75469)
Sequence (O75469 whole entry): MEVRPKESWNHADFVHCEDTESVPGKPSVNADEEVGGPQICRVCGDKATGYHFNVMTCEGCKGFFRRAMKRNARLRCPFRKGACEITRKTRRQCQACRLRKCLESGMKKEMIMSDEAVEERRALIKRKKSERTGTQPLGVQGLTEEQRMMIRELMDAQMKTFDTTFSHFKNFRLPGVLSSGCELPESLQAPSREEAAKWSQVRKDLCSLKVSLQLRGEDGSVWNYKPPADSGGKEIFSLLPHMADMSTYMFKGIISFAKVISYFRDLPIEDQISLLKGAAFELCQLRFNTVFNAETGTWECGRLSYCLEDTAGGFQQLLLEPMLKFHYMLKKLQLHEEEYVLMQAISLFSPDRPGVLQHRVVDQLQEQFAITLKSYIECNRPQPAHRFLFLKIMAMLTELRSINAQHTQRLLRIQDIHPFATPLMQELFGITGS
Test: Agonist activity at PXR (unknown origin) assessed as maximum receptor activation response at 20 uM by AlphaScreen assay relative to T0901317
Conditions: read-out: Efficacy
measurement kind: Emax at 20 µM

Example entries and their recorded answers appear below.
compound	Emax at 20 µM
CC(C)(C)OC(=O)N1CC[C@@H]2[C@H]1c1ccc3c(c1N[C@H]2c1ccsc1)CCCC3	82 to 119%
CC(C)(C)OC(=O)N1CC[C@@H]2[C@H](c3ccco3)Nc3c(ccc4c3CCCC4)[C@@H]21 (racemic)	53%
CC(C)(C)OC(=O)N1CC[C@@H]2[C@@H](c3ccsc3)Nc3c(ccc4c3CCCC4)[C@@H]21 (racemic)	15%

Problem: # input compound: CC(C)(C)OC(=O)N1CC[C@@H]2[C@H](c3ccsc3)Nc3c(ccc4c3CCCC4)[C@@H]21 (racemic) ; wanted: its Emax at 20 µM
Result: 28%

Problem: # input compound: CC(C)(C)OC(=O)N1CC[C@H]2[C@@H](c3ccsc3)Nc3c(ccc4c3CCCC4)[C@H]21 ; wanted: its Emax at 20 µM
Result: 60%

Problem: # input compound: c1cc([C@@H]2Nc3c(ccc4c3CCCC4)[C@@H]3OCC[C@H]23)cs1 (racemic) ; wanted: its Emax at 20 µM
Result: 42%
